We begin with a simple list: items and their reported relative viability.
- System: NCI-H1299
- method.summary: relative viability (nuclei count vs DMSO), 5 days (fraction); higher = more cells survive
- particulars: first compound 0.4 µM

The cases that follow already have their relative viability on record.
compound: COc1cc(N2CCC(C(N)=O)CC2)ccc1Nc1nc(N)c(Cl)c(Nc2ccccc2S(=O)(=O)C(C)C)n1 [HG-5-88-01] + CS(=O)(=O)CCNCc1ccc(-c2ccc3ncnc(Nc4ccc(OCc5cccc(F)c5)c(Cl)c4)c3c2)o1 [Lapatinib] (partner 2 µM)
target.system: NCI-H1299
quantity: relative viability
observed.measurement: 0.87

compound: Clc1ccc(Nc2nnc(Cc3ccncc3)c3ccccc23)cc1 [Vatalanib] + CS(=O)(=O)N1CCN(Cc2cc3nc(-c4cccc5[nH]ncc45)nc(N4CCOCC4)c3s2)CC1 [Pictilisib] (partner 1 µM)
target.system: NCI-H1299
quantity: relative viability
observed.measurement: 0.967

compound: Clc1ccc(Nc2nnc(Cc3ccncc3)c3ccccc23)cc1 [Vatalanib] + O=C(c1cc(Cc2n[nH]c(=O)c3ccccc23)ccc1F)N1CCN(C(=O)C2CC2)CC1 [Olaparib] (partner 8 µM)
target.system: NCI-H1299
quantity: relative viability
observed.measurement: 1.04

compound: COc1cc(N2CCC(C(N)=O)CC2)ccc1Nc1nc(N)c(Cl)c(Nc2ccccc2S(=O)(=O)C(C)C)n1 [HG-5-88-01] + C[C@@H](Oc1cc(-c2cnn(C3CCNCC3)c2)cnc1N)c1c(Cl)ccc(F)c1Cl [Crizotinib] (partner 1 µM)
target.system: NCI-H1299
quantity: relative viability
observed.measurement: 0.982

compound: COc1cc(N2CCC(C(N)=O)CC2)ccc1Nc1nc(N)c(Cl)c(Nc2ccccc2S(=O)(=O)C(C)C)n1 [HG-5-88-01] + O=C(c1cc(Cc2n[nH]c(=O)c3ccccc23)ccc1F)N1CCN(C(=O)C2CC2)CC1 [Olaparib] (partner 8 µM)
target.system: NCI-H1299
quantity: relative viability
observed.measurement: 0.986

compound: COc1cc(N2CCC(C(N)=O)CC2)ccc1Nc1nc(N)c(Cl)c(Nc2ccccc2S(=O)(=O)C(C)C)n1 [HG-5-88-01] + CC1(C)CCC(c2ccc(Cl)cc2)=C(CN2CCN(c3ccc(C(=O)NS(=O)(=O)c4ccc(N[C@H](CCN5CCOCC5)CSc5ccccc5)c(S(=O)(=O)C(F)(F)F)c4)cc3)CC2)C1 [Navitoclax] (partner 0.5 µM)
target.system: NCI-H1299
quantity: relative viability
observed.measurement: 1.03

compound: C[C@@H]1CN(CC(=O)Nc2ccc3c(c2)Cc2cccc(-c4cc(=O)cc(N5CCOCC5)o4)c2S3)C[C@H](C)O1 + CS(=O)(=O)N1CCN(Cc2cc3nc(-c4cccc5[nH]ncc45)nc(N4CCOCC4)c3s2)CC1 [Pictilisib] (partner 1 µM)
target.system: NCI-H1299
quantity: relative viability
observed.measurement: 0.848

compound: C[C@@H]1CN(CC(=O)Nc2ccc3c(c2)Cc2cccc(-c4cc(=O)cc(N5CCOCC5)o4)c2S3)C[C@H](C)O1 + O=C(c1cc(Cc2n[nH]c(=O)c3ccccc23)ccc1F)N1CCN(C(=O)C2CC2)CC1 [Olaparib] (partner 8 µM)
target.system: NCI-H1299
quantity: relative viability
observed.measurement: 1.05

Ask | Which relative viability is listed for C[C@@H]1CN(CC(=O)Nc2ccc3c(c2)Cc2cccc(-c4cc(=O)cc(N5CCOCC5)o4)c2S3)C[C@H](C)O1 + CC(C)C[C@H](NC(=O)[C@H](Cc1ccccc1)NC(=O)c1cnccn1)B(O)O [Bortezomib] (partner 0.002 µM) ?
Reply | 1.01

Ask | Find the recorded relative viability belonging to Clc1ccc(Nc2nnc(Cc3ccncc3)c3ccccc23)cc1 [Vatalanib] + CS(=O)(=O)CCNCc1ccc(-c2ccc3ncnc(Nc4ccc(OCc5cccc(F)c5)c(Cl)c4)c3c2)o1 [Lapatinib] (partner 2 µM) and report it.
Reply | 0.931

Ref: the supplement of paper PMC10307832
